Entries and their DC50 values follow.
Biological target: TYK2 (Homo sapiens)
Sequence (P29597 whole entry): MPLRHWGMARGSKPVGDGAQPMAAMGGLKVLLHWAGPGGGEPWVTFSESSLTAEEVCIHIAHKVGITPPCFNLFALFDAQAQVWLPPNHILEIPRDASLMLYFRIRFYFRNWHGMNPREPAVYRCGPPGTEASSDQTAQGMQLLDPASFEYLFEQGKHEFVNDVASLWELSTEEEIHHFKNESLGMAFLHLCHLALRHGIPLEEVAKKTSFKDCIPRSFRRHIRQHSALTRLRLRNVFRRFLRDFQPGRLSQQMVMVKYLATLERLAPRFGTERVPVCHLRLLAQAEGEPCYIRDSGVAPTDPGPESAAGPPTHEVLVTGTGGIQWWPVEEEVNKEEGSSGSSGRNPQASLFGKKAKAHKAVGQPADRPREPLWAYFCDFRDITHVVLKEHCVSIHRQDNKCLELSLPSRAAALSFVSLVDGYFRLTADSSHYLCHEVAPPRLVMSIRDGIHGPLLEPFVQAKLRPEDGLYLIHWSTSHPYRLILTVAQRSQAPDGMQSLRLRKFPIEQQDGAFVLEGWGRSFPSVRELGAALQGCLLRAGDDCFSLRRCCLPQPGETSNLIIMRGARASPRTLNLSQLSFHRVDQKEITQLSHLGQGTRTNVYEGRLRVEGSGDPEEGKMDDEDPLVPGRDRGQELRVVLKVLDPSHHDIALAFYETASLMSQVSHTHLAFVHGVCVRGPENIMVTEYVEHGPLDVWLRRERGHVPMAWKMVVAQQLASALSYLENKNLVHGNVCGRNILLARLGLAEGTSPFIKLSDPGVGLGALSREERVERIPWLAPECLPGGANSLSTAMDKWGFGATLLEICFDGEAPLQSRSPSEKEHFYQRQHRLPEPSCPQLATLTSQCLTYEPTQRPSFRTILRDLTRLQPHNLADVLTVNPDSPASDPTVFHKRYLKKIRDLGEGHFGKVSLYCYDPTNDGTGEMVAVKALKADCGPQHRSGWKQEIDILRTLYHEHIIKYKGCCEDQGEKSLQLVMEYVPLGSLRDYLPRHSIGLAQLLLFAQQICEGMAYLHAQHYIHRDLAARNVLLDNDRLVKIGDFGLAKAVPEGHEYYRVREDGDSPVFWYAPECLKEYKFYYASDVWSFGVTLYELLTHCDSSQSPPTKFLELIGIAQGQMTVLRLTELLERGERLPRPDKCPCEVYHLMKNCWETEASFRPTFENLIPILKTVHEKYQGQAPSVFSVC
Assay: TYK2 degradation MSD assay in OCI-LY10 cells
Format: cell-based
Set-up: endogenous in cells; host or cells: EBV-B cells
Settings: 4 to 24 hours incubation, read-out: TYK2 MSD DC50 rating in OCI-LY10

| MOLECULE | STUDY_TARGET | ATTRIBUTE_MEASURED | VALUE |
| --- | --- | --- | --- |
| CNc1cc(Nc2cccn(-c3ccc(C(=O)NCCOCCOCCOCCOCCNc4cncc(N5CCCC(C(=O)Nc6ccc(=O)n(CC(=O)OC)c6)C5)c4)cn3)c2=O)nn2c(C(=O)N[C@@H]3C[C@@H]3F)cnc12 (some centres unmarked) | TYK2 (Homo sapiens) | DC50 | > 100 nM |
| CNC(=O)c1cnc(Nc2ccc(N3CCN(c4ccc5c(c4)n(C)c(=O)n5C4CCC(=O)NC4=O)CC3)cn2)cc1Nc1cccc(-c2ncc(F)cn2)c1OC (centres unmarked) | TYK2 (Homo sapiens) | DC50 | < 1 nM |
| CNc1cc(Nc2cccn(-c3ccc(C(=O)N(C)Cc4ccc(-c5ccc6c(c5)n(C)c(=O)n6C5CCC(=O)NC5=O)cn4)cn3)c2=O)nn2c(C(=O)N[C@@H]3C[C@@H]3F)cnc12 (some centres unmarked) | TYK2 (Homo sapiens) | DC50 | > 100 nM |
| CNC(=O)c1cnc(Nc2ccc(CN(C)C3CCCN(c4cccc5c4n(C)c(=O)n5C4CCC(=O)NC4=O)C3)cn2)cc1Nc1cccc(-c2ncc(F)cn2)c1OC (centres unmarked) | TYK2 (Homo sapiens) | DC50 | > 100 nM |
| Cn1c(=O)n(C2CCC(=O)NC2=O)c2ccc(N3CCN(Cc4ccc(-c5cccc(Nc6ccc7ncc(C(=O)NC8CC8)n7n6)c5)nc4)CC3)cc21 (centres unmarked) | TYK2 (Homo sapiens) | DC50 | > 100 nM |
| CNc1cc(Nc2cccn(-c3cc(C(=O)NCCCCCCCCCCc4cccc5c4n(C)c(=O)n5C4CCC(=O)NC4=O)ccn3)c2=O)nn2c(C(=O)N[C@@H]3C[C@@H]3F)cnc12 (some centres unmarked) | TYK2 (Homo sapiens) | DC50 | > 100 nM |
| Cn1c(=O)n(C2CCC(=O)NC2=O)c2ccc(-c3ccc(N4CCN(Cc5ccc(-c6cccc(Nc7nn8c(C(=O)N[C@@H]9C[C@@H]9F)cnc8c8c7OCCN8)c6Cl)nc5)CC4)cc3)cc21 (some centres unmarked) | TYK2 (Homo sapiens) | DC50 | 1 to 10 nM |
| CNc1cc(Nc2cccc(-c3ccc(CN4CCN(c5ccc(-c6ccc7c(c6)n(C)c(=O)n7C6CCC(=O)NC6=O)cc5)CC4)cn3)c2)nc2c(C(=O)N[C@@H]3C[C@@H]3F)cnn12 (some centres unmarked) | TYK2 (Homo sapiens) | DC50 | < 1 nM |

Problem: Query DC50 on TYK2 (Homo sapiens) for CNC(=O)c1cnc(Nc2ccc(C(=O)NCCCCc3cccc4c3n(C)c(=O)n4C3CCC(=O)NC3=O)cn2)cc1Nc1cccn(C)c1=O (centres unmarked)
Result: 10 to 100 nM

Problem: Query DC50 on TYK2 (Homo sapiens) for CNc1cc(Nc2cccc(-c3ccc(CN4CCN(C(=O)c5ccc(Cl)c(N6CCC(=O)NC6=O)c5)CC4)cn3)c2OC)nn2c(C(=O)N[C@@H]3C[C@@H]3F)cnc12
Result: > 100 nM
